# melting point listing for each entry below

compound	melting point
COC(=O)C1=C(CC(=O)N2CCN(C)CC2)NC(CS(=O)c2ccccc2OC)=C(C(=O)OC)C1c1c(Cl)cccc1Cl (stereo not given)	160 °C
CCCC1(CC(=O)O)OCCc2c1[nH]c1c(C)ccc(C(=O)NC)c21 (stereo not given)	89 to 91 °C
COc1ccc(-c2[nH]nc3c2C(=O)c2c(NC(=O)C4CCCC4)cccc2-3)cc1	267 °C
CCOC(=O)C1(C(=O)OCC)C(CC)C(=O)N1Cc1ccc(OC)cc1OC (stereo not given)	69 °C
COC(=O)[C@@H](CCSC)NC(=O)C[C@H]1O[C@H](c2cccc(OC)c2OC)c2cc(Cl)ccc2N(CC(C)(C)CO)C1=O	142 to 143 °C
Nc1ccn2nc(-c3ccccc3)nc2c1	212 to 213 °C
CC1(C)OC(=O)c2c(O)cc(OCc3ccccc3)cc2O1	80 °C
O=C(Nc1ccc(F)cc1)NC1CCN(C(=O)c2ccc(C(=O)O)cc2)CC1	195 to 198 °C
Cn1c(=O)c(-c2ccccc2)cc2cnc(N)nc21	250 to 255 °C
COc1cc(CC(C#N)=CNc2ccccc2)cc(OC)c1N(C)C(C)=O	202 to 204 °C

Task item: Please give measured melting point of the following entry: CC(NC(=O)NO)c1ccc2cc(OCc3csc(-c4ccccc4)n3)ccc2c1 (single isomer, unassigned; (-))
Reply: 171 to 173 °C

Task item: Look up melting point of ClCCCCCOc1ccc(C2=C(c3ccccc3)CCCc3ccccc32)cc1 and report it.
Reply: 118 to 120 °C

Task item: Give reported melting point value for CCCC(=O)c1c[nH]c2ccsc2c1=O
Reply: 244 to 247 °C

Task item: Specify melting point for COCCOc1ccc(OCC2(O)CN3CCC2CC3)cc1 (stereo not given) and stop.
Reply: 93 to 95 °C

====

This listing pairs compounds with measured melting point.

Consider the reported melting point for these compounds:
compound	melting point
O=C(O)CS(=O)(=O)CC(F)(F)F	145 °C
Cc1nc2ccnn2c2c1CCN2C(C)(C)C	144 to 146 °C
CC(=O)Nc1ccccc1C1OC(=O)NC1=O (stereo not given)	197 to 198 °C

Task item: Return the recorded melting point value; entry: CCc1noc(-c2cn(-c3ccc([N+](=O)[O-])cn3)cn2)n1
Reply: 228 to 229 °C

Task item: Name the recorded melting point of the item COc1ccc2c(c1)C(=NOCCN1CCCC1)c1c-2c(N2CCNCC2)nc2ccccc12 in your answer.
Reply: 126 to 128 °C

====

Entries and their melting point values follow.

# annotated cases, reported melting point shown
molecule	testValue
CC(C)Oc1ccc(O)cc1OCCN1C(=O)c2ccccc2C1=O	123 °C
Cn1nnnc1-c1nccn1Cc1ccccc1	110 to 111 °C
CCOC(=O)c1[nH]c2cccc3c2c1CCC3O (stereo unspecified)	166 to 170 °C
CCOC(=O)COc1cc2c(cc1Cl)C(=O)CC1(CCCCC1)O2	116 to 117 °C

Task item: Using the record for COC(=O)CCCc1cc2nc(Cl)ccc2n1S(=O)(=O)c1ccc(C(C)C)cc1 , state its measured melting point.
Reply: 75 °C

Task item: Quickly give me recorded melting point for CC(=O)OC1CSC(Oc2cncc(-c3cccnc3Cl)c2)C(OC(C)=O)C1OC(C)=O (stereo unspecified)
Reply: 162 °C

====

assayMetric: melting point

Field: example entries. Status: answers known.
molecule	testValue
Cn1nnnc1CC(=O)c1ccc(Br)cc1N	159 to 160 °C
CC#CCOc1cc(Oc2c(F)cc(F)cc2F)ncn1	60.3 °C
O=C1CCCCN1Cc1ccc(CCn2cnc3cc(-c4ccc(F)cc4)sc3c2=O)cc1	216 to 217 °C

Task item: Kindly indicate its recorded melting point. Item: CC(CCl)=NNC1=Nc2ccc(Cl)cc2C(c2ccccc2)=NC1
Reply: 210 to 227 °C

====

assayMetric: melting point

These solved cases illustrate the format of a correct answer.
CCCCc1nc2c(N)nc3ccccc3c2n1CCCCO 184 to 186 °C
CC(=C(c1ccccc1)c1ccccc1)P(C(C)(C)C)C(C)(C)C 130 to 133 °C
CCOC(=O)c1nc(C(C)(C)C)nc2ccccc12 46 to 47 °C

Task item: Annotate the molecule COc1ccc(C(=O)C(=O)c2cccnc2)cc1 with its measured melting point.
Reply: 70 to 72 °C

Task item: // Input: CCc1sc2c(c1C)c(=O)c1cccc(C(=O)O)c1n2Cc1ccc(-c2ccccc2C#N)cc1 . Output its melting point only.
Reply: 203 to 205 °C

====

assayMetric: melting point

// worked examples, melting point included
compound	melting point
Cc1cc2cccc([C@H](O)CO)c2nc1-c1ccccc1	117 °C
NC(=O)N(O)C1CCC(c2ccccc2)CC1 (stereo not given)	161 to 162 °C
Cc1c(Cc2ccc(C(C)C)cc2)c2c(c(C)c1NC(=O)CC(C)(C)C)CC(C)(CN1CCCC1)O2 (stereo not given)	143 to 144 °C
CCc1cccc(CC)c1C(=O)Nc1cccc2c1CCN(C)C2	186 to 188 °C

Task item: Indicate its recorded melting point; the compound in question is CCOC(=O)/C(CC(=O)O)=C(\c1ccc(Cl)cc1)c1ccc(S(C)(=O)=O)cc1
Reply: 40 to 42 °C

Task item: In one line, give reported melting point of the entry Clc1ccccc1C1(c2ccc(-c3ccccc3)cc2)CO1 (stereo not given) .
Reply: 70 °C

Task item: Answer with the recorded melting point of COc1ccccc1-c1ccc2cnc(Nc3ccc4c(c3)NC(=O)CC4)nn12 only.
Reply: 310 to 313 °C

Task item: Identify the reported melting point for the following entry. COC(=O)C=Cc1cnc(N2CCC[C@H]2CO)nc1NCc1ccc(OC)c(Cl)c1
Reply: 163 to 164 °C

Task item: Specify measured melting point for CCC(C)(C)NCc1nc2sc3c(c2c(-c2ccc(OC)c(OC)c2)c1Cl)CCN(Cc1ccccc1)C3 .
Reply: 128 to 129 °C

Task item: Output melting point of CCc1cc(C)c2c(-c3cccc(Br)c3)cc(=O)n(CC)c2n1
Reply: 107 to 108 °C

====

Reported values of melting point for individual entries

Reference set (8 entries):
molecule	assayMetric	testValue
Oc1cc(Cl)cc(Br)c1	melting point	66 to 68 °C
CCCCCCCCCCc1ccc2cc(SC)c(OC)cc2c1	melting point	49.5 to 50.4 °C
CCOC(=O)[C@@H](Cc1ccccc1)C[C@H](Cc1ccccc1)C(=O)NCCC(=O)O (relative stereo)	melting point	84 to 86 °C
Nc1cc(Cl)c(Oc2ccc(S(=O)(=O)c3ccc(Cl)cc3)cc2)c(Cl)c1	melting point	186 to 187 °C
Cc1noc(C)c1-c1ccccc1OC1SCC(O)C(O)C1O (centres undefined)	melting point	110 to 117 °C
COc1c(O)c(CN2CCN(C)CC2)c(O)c2c(=O)cc(-c3ccccc3)oc12	melting point	179 °C
COc1cc(C)nc(NC(=O)NS(=O)(=O)c2cccc3cc[nH]c23)n1	melting point	207 to 209 °C
CC1=NC(NC(=O)Nc2cccc(Cl)c2)C(=O)N(CC(=O)N2CC3CCC(CC3)C2)c2c(C)cccc21 (centres undefined)	melting point	181 to 185 °C

Now consider the entry below.
Task item: Retrieve melting point measured for CCOCn1c(-c2ccc(Cl)cc2)c(S(=O)(=O)c2ccc(Cl)cc2)c(Br)c1C(F)(F)F and print it.
Reply: 107 to 112 °C

====

Here, each record is paired with measured melting point data.

Record excerpt, results attached:
compound	melting point
Cc1cccc(C)c1N1CCN(CCC2CN(C)C(=O)O2)CC1 (centres undefined)	107 to 108 °C
COC1C(OC(N)=O)CCC2(CO2)C1C1(C)OC1CC=C(C)C (centres undefined)	125 to 126 °C
O=C(O)c1cc2c(cc1C(=O)O)C(c1ccccc1)(C(F)(F)F)c1cc(C(=O)O)c(C(=O)O)cc1O2	276 °C
COc1cc(OC)nc(CN2C(=O)C3(COc4cc5c(cc43)OCCO5)c3ccccc32)n1 (centres undefined)	169 to 170 °C
COc1ccc(CSc2nnc(-c3ccc4[nH]ncc4c3)o2)cc1C(F)(F)F	136 to 137 °C

Task item: Return the recorded melting point value; entry: COc1nc(C(=O)NC(C)(C)C)c(C(=O)O)s1
Reply: 120 to 122 °C

Task item: For the compound CCCCCC1=CN(N)C2=NC(O)N(CCCNC(C)=O)C2=C1 (centres undefined) , give its reported melting point.
Reply: 189 to 191 °C

Task item: Identify measured melting point associated with CC(=O)NCCC1Cc2c(C)c(OCc3ccccc3)c(C)c(C)c2O1 (racemic)
Reply: 138 to 139 °C

Task item: Give melting point for Cc1nc(N(C)Cc2ccco2)c2nc(-c3ccccc3)cc-2[nH]1
Reply: 168 to 169 °C

Task item: Give reported melting point value for COc1cc(CC#N)c(OC)c(C)c1C
Reply: 98 to 99 °C

Task item: Recall and state the measured melting point for C#CCc1c(C)nc2c(NCc3c(C)cccc3NC(=O)CO)cccn12 .
Reply: 195 to 196 °C

Task item: Complete the entry with melting point for CCOC(=O)c1cccc(C2(C(N)=O)C(=O)N(CC(=O)N(c3ccccc3)C(C)C)c3ccccc3N(c3ccccc3)C2=O)c1 (centres undefined)
Reply: 187 to 188 °C

Task item: Tell us which melting point value is on record for CO[C@@H]1C(S(=O)(=O)c2ccccc2)=C[C@H](C)[C@@H](O[Si](C)(C)C(C)(C)C)[C@@H](C)[C@@H]1O[Si](C)(C)C(C)(C)C
Reply: 94 to 96 °C

Task item: Output measured melting point for this item: O=C(O)C1CSC(c2ccccc2OCCCCO[N+](=O)[O-])N1 (centres undefined)
Reply: 108 to 110 °C

Task item: Return melting point (reported value) for this compound: O=C1OC2(CCN(C(=O)Nc3cnc(-c4ccccc4)cn3)CC2)c2ccccc21
Reply: 206 °C

Task item: Identify melting point associated with the compound CCCCCCCCCCCCCCCCCC(CCC(=O)O)[N+](=O)[O-] (centres undefined)
Reply: 55 to 56 °C

Task item: Consider the compound NS(=O)(=O)c1ccc(NN=C2C(=O)Nc3cc(Oc4ccccc4)ccc32)cc1 and give its recorded melting point.
Reply: > 250 °C

Task item: Determine from records and report melting point for C#CCOc1ccc(C(=O)C=Cc2c(OC)cc(OC)cc2OC)c(O)c1
Reply: 177 to 179 °C

Task item: Identify the reported melting point for the following entry. COc1ccccc1-c1ccc(C(=O)O)cc1
Reply: 250 to 253 °C
